Organism: Gallus gallus
ASSAY NOTES: Agonist activity at oxytocin receptor in chicken by avian vasodepressor assay
Starred links: 1 amine or outer side, 2 acyl side, 3 side chain; linkers in the order of their positions; H or OH if unused. Positions of bridges follow the written chain, without caps; N, C: chain ends. Non-standard residues stand in square brackets, D forms with d. Residues, ends and D or L forms follow the SMILES beside them. hCys = N[C@@H](CCS)C(=O)O; X2 = O=C(CS[*:2])[*:1]
I'd be grateful if you could share measured Activity for these entries.
Numbers only, in U/mg.

Observe how each entry below is paired with its result.
COMPOUND	UNIT TEXT	NUMERIC READOUT
CC[C@H](C)[C@@H]1NC(=O)[C@H](Cc2ccc(O)cc2)NC(=O)[C@@H](N)CSSC[C@@H](C(=O)N2CCC[C@H]2C(=O)N[C@@H](CC(C)C)C(=O)NCC(N)=O)NC(=O)[C@H](CC(N)=O)NC(=O)[C@H](CCC(N)=O)NC1=O	U/mg	507
CC[C@H](C)[C@@H]1NC(=O)[C@H](Cc2ccc(O)cc2)NC(=O)CSSCC[C@@H](C(=O)N2CCC[C@H]2C(=O)N[C@@H](CC(C)C)C(=O)NCC(N)=O)NC(=O)[C@H](CC(N)=O)NC(=O)[C@H](CCC(N)=O)NC1=O (YIQN[hCys]PLG-NH2; linker N-5 via X2)	U/mg	0.3
CC[C@H](C)[C@@H]1NC(=O)[C@H](Cc2ccc(O)cc2)NC(=O)[C@@H](N)CSSCC[C@@H](C(=O)N2CCC[C@H]2C(=O)N[C@@H](CC(C)C)C(=O)NCC(N)=O)NC(=O)[C@H](CC(N)=O)NC(=O)[C@H](CCC(N)=O)NC1=O	U/mg	0.2

Next up:
For the compound `CC[C@H](C)[C@@H]1NC(=O)[C@H](Cc2ccc(O)cc2)NC(=O)CCSSC[C@H](C(=O)N2CCC[C@H]2C(=O)N[C@@H](CC(C)C)C(=O)NCC(N)=O)NC(=O)[C@H](CC(N)=O)NC(=O)[C@H](CCC(N)=O)NC1=O` , what Activity is on record?
975

====

TESTED SYSTEM: Oxytocin receptor (Rattus norvegicus)
Sequence (whole entry): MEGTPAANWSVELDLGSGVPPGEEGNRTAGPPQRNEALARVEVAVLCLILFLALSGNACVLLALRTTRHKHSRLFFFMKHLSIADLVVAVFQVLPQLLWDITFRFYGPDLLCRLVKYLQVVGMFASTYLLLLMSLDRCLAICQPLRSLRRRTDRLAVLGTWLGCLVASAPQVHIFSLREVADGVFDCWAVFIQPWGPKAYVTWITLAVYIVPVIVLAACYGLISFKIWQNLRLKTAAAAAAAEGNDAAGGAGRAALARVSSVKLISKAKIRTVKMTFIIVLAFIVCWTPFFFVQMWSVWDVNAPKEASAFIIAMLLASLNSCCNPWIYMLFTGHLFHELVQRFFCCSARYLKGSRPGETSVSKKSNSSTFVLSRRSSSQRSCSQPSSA
ASSAY NOTES: Agonist activity at oxytocin receptor in rat uterus
Assay type: tissue-based
Starred links: 1 amine or outer side, 2 acyl side, 3 side chain; linkers in the order of their positions; H or OH if unused. Positions of bridges follow the written chain, without caps; N, C: chain ends. Non-standard residues stand in square brackets, D forms with d. Residues, ends and D or L forms follow the SMILES beside them. hCys = N[C@@H](CCS)C(=O)O; X1 = O=C(CCCS[*:2])[*:1]; X2 = O=C(CS[*:2])[*:1]
METRIC NAME: Activity (U/mg)
Numbers only, in U/mg.

MOLECULE	Activity (U/mg)
CC[C@H](C)[C@@H]1NC(=O)[C@H](Cc2ccc(O)cc2)NC(=O)CSSCC[C@@H](C(=O)N2CCC[C@H]2C(=O)N[C@@H](CC(C)C)C(=O)NCC(N)=O)NC(=O)[C@H](CC(N)=O)NC(=O)[C@H](CCC(N)=O)NC1=O (YIQN[hCys]PLG-NH2; linker N-5 via X2)	37
CC[C@H](C)[C@@H]1NC(=O)[C@H](Cc2ccc(O)cc2)NC(=O)[C@@H](N)CSSC[C@@H](C(=O)N2CCC[C@H]2C(=O)N[C@@H](CC(C)C)C(=O)NCC(N)=O)NC(=O)[C@H](CC(N)=O)NC(=O)[C@H](CCC(N)=O)NC1=O	546
CC[C@H](C)[C@@H]1NC(=O)[C@H](Cc2ccc(O)cc2)NC(=O)CCCSSCC[C@@H](C(=O)N2CCC[C@H]2C(=O)N[C@@H](CC(C)C)C(=O)NCC(N)=O)NC(=O)[C@H](CC(N)=O)NC(=O)[C@H](CCC(N)=O)NC1=O (YIQN[hCys]PLG-NH2; linker N-5 via X1)	0.3

I'm hoping you can list Activity for every molecule here, please.
1. CC[C@H](C)[C@@H]1NC(=O)[C@H](Cc2ccc(O)cc2)NC(=O)CCSSCC[C@@H](C(=O)N2CCC[C@H]2C(=O)N[C@@H](CC(C)C)C(=O)NCC(N)=O)NC(=O)[C@H](CC(N)=O)NC(=O)[C@H](CCC(N)=O)NC1=O
2. CC[C@H](C)[C@@H]1NC(=O)[C@H](Cc2ccc(O)cc2)NC(=O)CCSSC[C@H](C(=O)N2CCC[C@H]2C(=O)N[C@@H](CC(C)C)C(=O)NCC(N)=O)NC(=O)[C@H](CC(N)=O)NC(=O)[C@H](CCC(N)=O)NC1=O
3. CC[C@H](C)[C@@H]1NC(=O)[C@H](Cc2ccc(O)cc2)NC(=O)[C@@H](N)CSSCC[C@@H](C(=O)N2CCC[C@H]2C(=O)N[C@@H](CC(C)C)C(=O)NCC(N)=O)NC(=O)[C@H](CC(N)=O)NC(=O)[C@H](CCC(N)=O)NC1=O

1. 22
2. 803
3. 12
